# MEASUREMENT_PROTOCOL: physchem
# CONDITION_INFO: organic solvent or mixture, thermodynamic from solid, solubility in methanol, methanol
ENDPOINT_NAME: solubility

Entry OCCOc1ccc(/C(=C(/CCCl)c2ccccc2)c2ccccc2)cc1 has what solubility?
~67 mg/mL

----------
# MEASUREMENT_PROTOCOL: Solubility by shake flask method with HPLC analysis
# CONDITION_INFO: simulated gastric fluid, thermodynamic from solid
ENDPOINT_NAME: solubility at 3 h

Look at this molecule and give its reported solubility at 3 h. OCCOc1ccc(/C(=C(/CCCl)c2ccccc2)c2ccccc2)cc1 [Ospemifene (OSP), ospemifene]
< 0.03 µg/mL

----------
# MEASUREMENT_PROTOCOL: Solubility by shake flask method with HPLC analysis
# CONDITION_INFO: water, thermodynamic from solid
ENDPOINT_NAME: solubility at 3 h (µg/mL)
Answer in µg/mL, number only, no unit symbol.

// returns reported solubility at 3 h for input OCCOc1ccc(/C(=C(/CCCl)c2ccccc2)c2ccccc2)cc1 [Ospemifene (OSP), ospemifene]
0.04

----------
# MEASUREMENT_PROTOCOL: Solubility by shake flask method with HPLC analysis
# CONDITION_INFO: pH 6.8, aqueous buffer, thermodynamic from solid
ENDPOINT_NAME: solubility at 3 h

Suppose we examine the compound OCCOc1ccc(/C(=C(/CCCl)c2ccccc2)c2ccccc2)cc1 ; what solubility at 3 h value has been reported?
< 0.03 µg/mL

----------
# MEASUREMENT_PROTOCOL: Micro dissolution in simulated GI fluids (FaSSIF, FeSSIF) and pH 6.8 phosphate buffer
# CONDITION_INFO: pH 6.8, aqueous buffer
# Source text: To investigate the in-vivo absorption process of ospemifene in the GI tract, a dissolution method using simulated GI fluids (FaSSIF and FeSSIF) was developed to simulate drug dissolution in-vivo. The abbreviation “FaSSIF” stands for fasted state simulated intestinal fluid, while the abbreviation “FeSSIF” stands for fed state simulated intestinal fluid. […] FaSSIF and FeSSIF media are commercially available from Biorelevant and were used according to the manufacturer's instructions. […]
ENDPOINT_NAME: solubility

// lookup solubility for OCCOc1ccc(/C(=C(/CCCl)c2ccccc2)c2ccccc2)cc1
< 10 µg/mL

Attribution: patent US10596118B2
